Target: BRAF V600E (Homo sapiens, UniProt P15056+Q96SW2, V600E)
Construct: knock-in of the HiBiT tag to the endogenous BRAF V600E locus; host or cells: A375.10 (A375 clonal line, CRISPR HiBiT knock-in at the endogenous BRAF V600E locus)
Sequence (P15056 whole entry V600E): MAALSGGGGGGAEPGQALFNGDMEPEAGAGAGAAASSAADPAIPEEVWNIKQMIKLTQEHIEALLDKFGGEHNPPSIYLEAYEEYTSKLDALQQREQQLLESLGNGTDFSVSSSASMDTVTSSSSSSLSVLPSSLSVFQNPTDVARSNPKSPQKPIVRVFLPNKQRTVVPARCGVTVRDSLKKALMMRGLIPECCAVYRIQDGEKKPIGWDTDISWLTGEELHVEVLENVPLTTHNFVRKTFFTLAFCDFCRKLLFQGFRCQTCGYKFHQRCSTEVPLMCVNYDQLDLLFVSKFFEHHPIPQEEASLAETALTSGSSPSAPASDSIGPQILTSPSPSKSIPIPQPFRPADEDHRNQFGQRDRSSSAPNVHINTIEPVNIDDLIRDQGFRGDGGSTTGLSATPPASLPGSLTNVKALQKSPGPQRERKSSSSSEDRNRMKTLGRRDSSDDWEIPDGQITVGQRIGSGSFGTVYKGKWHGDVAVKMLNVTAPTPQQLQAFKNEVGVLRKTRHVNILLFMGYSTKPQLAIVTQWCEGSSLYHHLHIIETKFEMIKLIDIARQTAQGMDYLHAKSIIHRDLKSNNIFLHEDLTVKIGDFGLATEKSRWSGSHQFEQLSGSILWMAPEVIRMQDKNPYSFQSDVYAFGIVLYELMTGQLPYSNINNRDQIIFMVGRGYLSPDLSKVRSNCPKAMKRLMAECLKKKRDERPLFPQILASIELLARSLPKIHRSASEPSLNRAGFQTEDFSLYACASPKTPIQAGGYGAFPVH
Sequence (Q96SW2 whole entry): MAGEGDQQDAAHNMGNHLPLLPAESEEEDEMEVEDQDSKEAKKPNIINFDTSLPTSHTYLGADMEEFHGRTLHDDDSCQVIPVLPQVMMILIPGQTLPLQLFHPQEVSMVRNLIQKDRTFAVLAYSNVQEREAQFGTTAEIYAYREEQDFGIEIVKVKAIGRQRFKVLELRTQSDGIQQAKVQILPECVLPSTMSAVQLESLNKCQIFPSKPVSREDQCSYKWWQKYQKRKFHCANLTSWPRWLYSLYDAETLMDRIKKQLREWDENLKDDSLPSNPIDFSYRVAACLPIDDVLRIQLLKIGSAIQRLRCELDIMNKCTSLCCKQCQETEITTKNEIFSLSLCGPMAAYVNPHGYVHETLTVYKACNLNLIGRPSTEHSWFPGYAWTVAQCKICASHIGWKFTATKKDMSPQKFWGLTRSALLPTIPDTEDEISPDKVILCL
Sequence (Q16531 whole entry partner): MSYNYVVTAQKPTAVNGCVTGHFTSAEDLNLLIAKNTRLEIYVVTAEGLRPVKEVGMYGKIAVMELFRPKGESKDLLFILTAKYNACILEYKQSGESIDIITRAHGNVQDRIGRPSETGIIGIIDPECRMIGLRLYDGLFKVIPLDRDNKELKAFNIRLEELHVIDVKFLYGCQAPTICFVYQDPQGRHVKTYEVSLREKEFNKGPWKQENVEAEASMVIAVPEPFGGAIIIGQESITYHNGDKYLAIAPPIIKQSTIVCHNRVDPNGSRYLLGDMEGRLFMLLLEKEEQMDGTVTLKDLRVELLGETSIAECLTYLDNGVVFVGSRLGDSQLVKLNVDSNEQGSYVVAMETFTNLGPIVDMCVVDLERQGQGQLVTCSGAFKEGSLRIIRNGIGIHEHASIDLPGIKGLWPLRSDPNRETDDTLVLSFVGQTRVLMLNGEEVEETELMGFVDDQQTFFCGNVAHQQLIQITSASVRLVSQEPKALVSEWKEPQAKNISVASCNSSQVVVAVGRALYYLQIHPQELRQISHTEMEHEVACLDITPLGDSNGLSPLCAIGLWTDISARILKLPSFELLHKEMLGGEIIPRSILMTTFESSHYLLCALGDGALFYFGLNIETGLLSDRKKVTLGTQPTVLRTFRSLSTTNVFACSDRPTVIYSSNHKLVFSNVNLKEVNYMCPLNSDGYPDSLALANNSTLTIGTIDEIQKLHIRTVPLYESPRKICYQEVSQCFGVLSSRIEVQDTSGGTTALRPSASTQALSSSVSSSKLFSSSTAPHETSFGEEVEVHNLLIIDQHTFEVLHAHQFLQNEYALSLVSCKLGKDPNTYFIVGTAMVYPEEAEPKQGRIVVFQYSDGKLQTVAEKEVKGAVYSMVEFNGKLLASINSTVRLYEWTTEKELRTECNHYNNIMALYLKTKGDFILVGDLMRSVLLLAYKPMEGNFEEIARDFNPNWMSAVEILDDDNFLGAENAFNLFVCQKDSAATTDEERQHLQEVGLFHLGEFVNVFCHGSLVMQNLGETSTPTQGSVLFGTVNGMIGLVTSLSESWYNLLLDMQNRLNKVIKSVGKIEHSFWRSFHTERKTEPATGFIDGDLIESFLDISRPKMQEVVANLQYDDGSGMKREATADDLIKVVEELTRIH
Assay: BRAF V600E HiBiT Degradation Assay
Format: cell-based
Details: A375.10 cells, BRAF V600E, 2 hours; inflection point; read-out: HiBiT-Degradation A375.10 BRAF 2 hours IP
Method: Compounds of this invention were tested for degradation of mutant BRAF V600E using the HiBiT assay, a luminescence-based assay for quantification of cellular protein levels using the Nano-Glo® HiBiT Lytic Detection System (Catalog No. N3050, Promega, Madison, WI USA). […] Data were analyzed with a 4-parameter logistic fit to generate sigmoidal dose-response curves. […]
ENDPOINT_LABEL: DC50

{"COMPOUND": "CCN(C)S(=O)(=O)Nc1ccc(F)c(Oc2ccc3ncc([C@H]4COC5(CCN(C6CCC(c7ccc(NC8CCC(=O)NC8=O)cc7F)CC6)CC5)C4)nc3c2)c1C#N (single isomer, unassigned) [Compound 59]", "RESULT": "< 1000 nM"}
{"COMPOUND": "CO[C@@H]1CCN(S(=O)(=O)Nc2ccc(F)c(Oc3ccc4ncn([C@H]5COC6(CCN(C7CCC(c8ccc(NC9CCC(=O)NC9=O)cc8F)CC7)CC6)C5)c(=O)c4c3)c2C#N)C1 (single isomer, unassigned) [Compound 109]", "RESULT": "< 1000 nM"}

src = patent US20260297060A1
